# systemName: MpaCA (Malassezia pachydermatis, UniProt A0A0M8MPA4)
# Sequence (A0A0M8MPA4 1-242): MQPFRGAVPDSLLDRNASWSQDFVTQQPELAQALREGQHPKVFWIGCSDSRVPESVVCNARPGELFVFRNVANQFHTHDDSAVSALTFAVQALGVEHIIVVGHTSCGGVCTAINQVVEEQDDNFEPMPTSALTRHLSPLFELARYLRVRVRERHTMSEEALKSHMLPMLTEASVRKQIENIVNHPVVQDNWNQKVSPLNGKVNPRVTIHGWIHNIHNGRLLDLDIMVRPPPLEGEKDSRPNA
Collected pKi values appear next to each entry.
Here pKi is given on a logarithmic scale as minus log10 of the concentration in mol/L.

{"columns": ["compound", "systemName", "reportedProperty", "experimentalResult"],
 "data": [
  ["NS(=O)(=O)c1cccc(NC(=[Se])NC(=O)c2ccc(Cl)cc2)c1 [8f]", "MpaCA (Malassezia pachydermatis, UniProt A0A0M8MPA4)", "pKi", 4.13],
  ["CCCCCCCc1ccc(C(=O)NC(=[Se])Nc2cccc(S(N)(=O)=O)c2)cc1 [8b]", "MpaCA (Malassezia pachydermatis, UniProt A0A0M8MPA4)", "pKi", 4.31],
  ["NS(=O)(=O)c1ccc(NC(=[Se])NC(=O)c2ccc3c(c2)OCO3)cc1 [7b]", "MpaCA (Malassezia pachydermatis, UniProt A0A0M8MPA4)", "pKi", 4.69]
]}

Next up:
Query string: Request the reported pKi associated with NS(=O)(=O)c1ccc(CCNC(=[Se])NC(=O)c2ccc3c(c2)OCO3)cc1 [9c]
Result string: 4.25

====

# Tested on: ATCC M. furfur 14521
# Construct: ATCC 14521
# methodSummary: microbe, parasite or virus in culture
# particulars: Malassezia furfur
Mark each entry fulfilled if its MIC sits below 7 µg/mL, and not fulfilled for all others.

Solved entries (count: 4):
{"columns": ["compound", "discreteLabel"],
 "data": [
  ["NS(=O)(=O)c1cccc(NC(=[Se])NC(=O)c2ccc(I)cc2)c1", "fulfilled"],
  ["NS(=O)(=O)c1ccc(CCNC(=[Se])NC(=O)c2ccc(/N=N/c3ccccc3)cc2)cc1", "fulfilled"],
  ["NS(=O)(=O)c1ccc(NC(=[Se])NC(=O)c2ccc(CCl)cc2)cc1", "not fulfilled"],
  ["NS(=O)(=O)c1ccc(NC(=[Se])Nc2ccccc2F)cc1", "not fulfilled"]
]}

Query string: MIC under 7 µg/mL? Item: NS(=O)(=O)c1ccc(O)c(NC(=[Se])NC(=O)c2ccc(Cl)cc2)c1 [11f]
Result string: fulfilled

Query string: Can you check O=C(NC(=[Se])Nc1ccccc1)c1cc(Br)cc(OC(F)(F)F)c1 [16b] next?
Result string: not fulfilled

Query string: What do you have for CC(=O)Oc1ccccc1C(=O)NC(=[Se])Nc1cc(S(N)(=O)=O)ccc1O [11e] ?
Result string: fulfilled

Query string: Also NS(=O)(=O)c1ccc(O)c(NC(=[Se])NC(=O)c2ccc(CCl)cc2)c1 [11h] ?
Result string: not fulfilled

Query string: Also need NS(=O)(=O)c1ccc(CCNC(=[Se])Nc2ccc(I)cc2)cc1 , thanks.
Result string: fulfilled

====

Item-by-item account of MIC
# Tested on: M. pachydermatis DSMZ 6172
# Construct: DSMZ 6172 (CDC 16334)
# methodSummary: microbe, parasite or virus in culture
# Design: broth microdilution MIC, M. pachydermatis and Candida, 35 °C
# particulars: Malassezia pachydermatis, DSMZ6172
// note: answer is a bare numeric in µg/mL

{"columns": ["compound", "unitsOfMeasure", "MIC"],
 "data": [
  ["NS(=O)(=O)c1cccc(NC(=[Se])NC(=O)c2cc(Br)cc(OC(F)(F)F)c2)c1 [8c]", "µg/mL", 2],
  ["NS(=O)(=O)c1ccc(O)c(NC(=[Se])NC(=O)c2ccc(Cl)cc2)c1 [11f]", "µg/mL", 0.5],
  ["NS(=O)(=O)c1ccc(O)c(NC(=[Se])NC(=O)c2cc(Br)cc(OC(F)(F)F)c2)c1 [11i]", "µg/mL", 0.5],
  ["COc1ccccc1NC(=[Se])NCCc1ccc(S(N)(=O)=O)cc1 [5f]", "µg/mL", 0.5],
  ["NS(=O)(=O)c1ccc(O)c(NC(=[Se])NC(=O)c2ccc([N+](=O)[O-])cc2)c1 [11c]", "µg/mL", 0.5],
  ["NS(=O)(=O)c1cccc(NC(=[Se])NC(=O)c2ccc(Cl)cc2)c1 [8f]", "µg/mL", 16]
]}

Query string: I'd like to know its MIC. The compound in question is O=C(NC(=[Se])Nc1ccc(S(=O)(=O)Nc2nccs2)cc1)c1cc(Br)cc(OC(F)(F)F)c1 [10b]
Result string: 16

Query string: // next record CCCCCCCc1ccc(C(=O)NC(=[Se])Nc2ccc(S(N)(=O)=O)cc2)cc1 [7e]
Result string: 0.5

Query string: Moving on to the next compound: O=C(NC(=[Se])Nc1ccc(S(=O)(=O)Nc2nccs2)cc1)c1ccc([N+](=O)[O-])cc1 [10d]
Result string: 1.8

====

# systemName: MpaCA (Malassezia pachydermatis)
# Sequence (A0A0M8MPA4 1-242): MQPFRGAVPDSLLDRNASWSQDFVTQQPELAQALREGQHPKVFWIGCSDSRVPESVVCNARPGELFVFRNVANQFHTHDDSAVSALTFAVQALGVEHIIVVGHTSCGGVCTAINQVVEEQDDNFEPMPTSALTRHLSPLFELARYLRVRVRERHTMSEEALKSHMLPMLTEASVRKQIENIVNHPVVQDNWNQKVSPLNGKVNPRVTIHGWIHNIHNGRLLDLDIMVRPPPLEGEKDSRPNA
reportedProperty: Ki (µM)
Give the value, in units of µM, as a plain number.

{"columns": ["compound", "Ki [µM]"],
 "data": [
  ["O=C(NC(=[Se])Nc1ccc(S(=O)(=O)Nc2nccs2)cc1)c1ccc(I)cc1 [10f]", 74.3]
]}

Query string: Query: Ki; subject: NS(=O)(=O)c1ccc(NC(=[Se])NC(=O)c2ccc([N+](=O)[O-])cc2)cc1
Result string: 85.4

Query string: Quick one: NS(=O)(=O)c1ccc(NC(=[Se])Nc2ccccc2F)cc1
Result string: 0.152

Query string: What about NS(=O)(=O)c1ccc(O)c(NC(=[Se])NC(=O)c2ccccc2)c1 [11a] ?
Result string: 13.4

Query string: Okay, and NS(=O)(=O)c1ccc(NC(=O)Nc2ccccc2F)cc1 [14a] ?
Result string: 0.845

Query string: Now consider NS(=O)(=O)c1ccc(CCNC(=[Se])Nc2ccc3ccccc3c2)cc1 .
Result string: 0.26

Query string: // next record O=C(NC(=[Se])Nc1ccc(S(=O)(=O)Nc2nccs2)cc1)c1ccc(Cl)cc1 [10g]
Result string: 66.7

Query string: Also need NS(=O)(=O)c1cccc(NC(=[Se])NC(=O)c2ccc(I)cc2)c1 , thanks.
Result string: 77.6

Query string: // same read-out, input: NS(=O)(=O)c1ccc(NC(=[Se])NC(=O)c2ccc(F)cc2)cc1
Result string: 80.8

Query string: What do we get for NS(=O)(=O)c1ccc(NC(=S)Nc2ccccc2F)cc1 [14b] ?
Result string: 0.488

Query string: What about NS(=O)(=O)c1ccc(NC(=[Se])NC(=O)c2cc(Br)cc(OC(F)(F)F)c2)cc1 ?
Result string: 83.5

====

Endpoint: Ki. System: MpaCA (Malassezia pachydermatis). Items follow.
Number only, in µM; omit the unit.

See these solved cases before continuing.
{"columns": ["compound", "experimentalResult"],
 "data": [
  ["NS(=O)(=O)c1cccc(NC(=[Se])Nc2ccccc2)c1", 0.283],
  ["NS(=O)(=O)c1ccc(NC(=[Se])Nc2cccc(C(F)(F)F)c2)cc1", 0.617],
  ["NS(=O)(=O)c1ccc(CCNC(=[Se])NC(=O)c2ccc(/N=N/c3ccccc3)cc2)cc1", 88.8],
  ["CC(=O)Oc1ccccc1C(=O)NC(=[Se])Nc1ccc(S(N)(=O)=O)cc1", 66.8],
  ["NS(=O)(=O)c1cccc(NC(=[Se])NC(=O)c2ccc(Br)cc2F)c1", 65.7]
]}

Query string: Fill in the blank: the reported Ki of NS(=O)(=O)c1ccc(CCNC(=[Se])NC(=O)c2ccccc2)cc1 is ____.
Result string: 73.9

Query string: # iterate: NS(=O)(=O)c1ccc(CCNC(=[Se])Nc2ccc(I)cc2)cc1
Result string: 0.531

Query string: Lookup NS(=O)(=O)c1ccc(CCNC(=[Se])NC(=O)c2ccc(I)cc2)cc1
Result string: 83.3

Query string: Could you do the same for NS(=O)(=O)c1ccc(O)c(NC(=[Se])NC(=O)c2ccc(Br)cc2F)c1 [11g] , please?
Result string: 70.9

Query string: Similarly, O=C(NC(=[Se])Nc1ccc(S(=O)(=O)Nc2nccs2)cc1)c1ccc([N+](=O)[O-])cc1 [10d] ?
Result string: 92.8
